value_kind: melting point

COc1ccc(-c2cc(-c3ccncc3)on2)cc1	141 to 143 °C
COc1ccccc1-c1cc(-c2ccc(OC)c(OC)c2OC)on1	102 to 103 °C
COc1ccc(OC)c(-c2cc(-c3ccc(O)cc3)no2)c1	176 to 178 °C
Oc1cccc(-c2cc(-c3ccccc3)on2)c1 [Compound 10, 3-(3-hydroxyphenyl)-5-(phenyl)isoxazole]	230 to 231 °C
COc1ccc(-c2cc(-c3ccc(OC)cc3OC)on2)cc1	93 to 94 °C
COc1ccc(-c2cc(-c3cccc(O)c3)no2)c(OC)c1	168 to 169 °C
